meta.source: patent US20130330346A1

Molecular target: T1, Human CXCR2 (human, UniProt P25025 1-360)
T1 sequence: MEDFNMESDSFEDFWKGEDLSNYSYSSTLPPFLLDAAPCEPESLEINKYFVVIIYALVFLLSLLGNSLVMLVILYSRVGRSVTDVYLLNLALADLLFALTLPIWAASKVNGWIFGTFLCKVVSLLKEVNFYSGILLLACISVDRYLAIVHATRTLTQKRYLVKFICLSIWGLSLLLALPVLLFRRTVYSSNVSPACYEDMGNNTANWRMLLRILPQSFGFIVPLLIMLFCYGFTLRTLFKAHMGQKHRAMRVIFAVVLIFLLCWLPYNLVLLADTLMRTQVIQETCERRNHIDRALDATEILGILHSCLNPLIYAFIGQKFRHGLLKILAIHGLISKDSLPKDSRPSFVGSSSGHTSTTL
Assay: cell-based or functional assay
value.type: FLIPR IC50 (GRO-α induced calcium release) (nM)

binder="CXCR20035 (other, Biparatopic: two VHH joined by a GlySer linker; also called 54B12-35GS-163E3; 54B12-163E3; not shown: C-terminal c-myc tag and His6 tag coded by pAX100) EVQLVESGGGLVQAGGSLTLSCAVSGSTFRINTMGWYRRAPGKQRELVAARDRGGYINYVDSVKGRFTVSRDNAKPTMYLQMNSLKPEDTAVYYCHAGTQDRTGRNFDRWGQGTQVTVSSGGGGSGGGGSGGGGSGGGGSGGGGSGGGGSGGGGSEVQLVESGGGLVQPGGSLRLSCVASGRIFSSNAMGWFRQAPGKEREFVAAITWRSGGSAYYADSAKGRFTISRDNAKNTVYLQMNSLKPEDTAVYYCAAGGSSWLSFPPDYWGQGTQVTVSS" value=10.2
binder="CXCR20033 (bispecific antibody, Biparatopic: two VHH joined by a GlySer linker; also called 163E3-35GS-2B2; 163E3-2B2; not shown: C-terminal c-myc tag and His6 tag coded by pAX100) EVQLVESGGGLVQPGGSLRLSCVASGRIFSSNAMGWFRQAPGKEREFVAAITWRSGGSAYYADSAKGRFTISRDNAKNTVYLQMNSLKPEDTAVYYCAAGGSSWLSFPPDYWGQGTQVTVSSGGGGSGGGGSGGGGSGGGGSGGGGSGGGGSGGGGSEVQLVESGGELVQPGGSLRLSCAASGSILTINAMGWYRQAPGKQRELVVRRTRGGSTTYQDSVKGRFTISADIAKKTMYLQMNSLKPEDTAVYYCMLDDRGGVYWGQGTQVTVSS" value=17.9
